Target: S1P1 (Homo sapiens)
Sequence (P21453 whole entry, species assumed): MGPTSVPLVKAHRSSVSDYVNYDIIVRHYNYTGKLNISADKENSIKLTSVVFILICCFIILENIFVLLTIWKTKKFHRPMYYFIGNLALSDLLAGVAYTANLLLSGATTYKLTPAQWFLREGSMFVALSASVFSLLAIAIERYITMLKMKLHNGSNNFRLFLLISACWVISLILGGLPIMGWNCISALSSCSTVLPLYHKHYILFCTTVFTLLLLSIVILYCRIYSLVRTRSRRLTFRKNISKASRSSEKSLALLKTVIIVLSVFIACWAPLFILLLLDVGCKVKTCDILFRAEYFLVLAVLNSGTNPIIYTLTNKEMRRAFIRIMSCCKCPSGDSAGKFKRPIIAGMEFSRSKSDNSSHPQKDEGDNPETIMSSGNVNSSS
Assay: 35S-GTPyS binding assay (membranes)
Conditions: compound 0.1nM-10µM, 0.1nM 35S-GTPyS, 10µM S1P as 100% maximum efficacy, 90 min at room temperature
pEC50: −log10 of the molar value. Where a name gives a salt, the structure may show the parent alone.
OBSERVED_PROPERTY: pEC50

[
  {
    "COMPOUND": "CCCCN(C(=O)c1ccccc1F)c1nnc(-c2cc(C)c(OCCNCCn3cncn3)c(C)c2)s1",
    "TESTED_TARGET": "S1P1 (Homo sapiens)",
    "pEC50": 8.39
  }
]

a. CCCCN(C(=O)c1ccccc1F)c1nnc(-c2ccc(CNCCO)cc2)s1 [Example 36, formate salt]
b. CCCCN(C(=O)c1ccccc1F)c1nnc(-c2ccc(CN3CC(c4nnn[nH]4)C3)cc2)s1
c. Cc1cc(-c2nnc(N(CC3CC3)C(=O)c3ccccc3Cl)s2)cc(C)c1OCCN1CCC(CC(=O)O)CC1 [Example 23, hydrochloride]
Exercise: Ascending by pEC50, please: list the compounds accordingly. Response field: labels, in requested order.
Solution: a, c, b
(a: 7.40, c: 8.39, b: 8.64)
